# subject.of.test: p300 (Homo sapiens)
# Construct: host or cells: A549 P300 HiBit cells
# Sequence (Q09472 whole entry): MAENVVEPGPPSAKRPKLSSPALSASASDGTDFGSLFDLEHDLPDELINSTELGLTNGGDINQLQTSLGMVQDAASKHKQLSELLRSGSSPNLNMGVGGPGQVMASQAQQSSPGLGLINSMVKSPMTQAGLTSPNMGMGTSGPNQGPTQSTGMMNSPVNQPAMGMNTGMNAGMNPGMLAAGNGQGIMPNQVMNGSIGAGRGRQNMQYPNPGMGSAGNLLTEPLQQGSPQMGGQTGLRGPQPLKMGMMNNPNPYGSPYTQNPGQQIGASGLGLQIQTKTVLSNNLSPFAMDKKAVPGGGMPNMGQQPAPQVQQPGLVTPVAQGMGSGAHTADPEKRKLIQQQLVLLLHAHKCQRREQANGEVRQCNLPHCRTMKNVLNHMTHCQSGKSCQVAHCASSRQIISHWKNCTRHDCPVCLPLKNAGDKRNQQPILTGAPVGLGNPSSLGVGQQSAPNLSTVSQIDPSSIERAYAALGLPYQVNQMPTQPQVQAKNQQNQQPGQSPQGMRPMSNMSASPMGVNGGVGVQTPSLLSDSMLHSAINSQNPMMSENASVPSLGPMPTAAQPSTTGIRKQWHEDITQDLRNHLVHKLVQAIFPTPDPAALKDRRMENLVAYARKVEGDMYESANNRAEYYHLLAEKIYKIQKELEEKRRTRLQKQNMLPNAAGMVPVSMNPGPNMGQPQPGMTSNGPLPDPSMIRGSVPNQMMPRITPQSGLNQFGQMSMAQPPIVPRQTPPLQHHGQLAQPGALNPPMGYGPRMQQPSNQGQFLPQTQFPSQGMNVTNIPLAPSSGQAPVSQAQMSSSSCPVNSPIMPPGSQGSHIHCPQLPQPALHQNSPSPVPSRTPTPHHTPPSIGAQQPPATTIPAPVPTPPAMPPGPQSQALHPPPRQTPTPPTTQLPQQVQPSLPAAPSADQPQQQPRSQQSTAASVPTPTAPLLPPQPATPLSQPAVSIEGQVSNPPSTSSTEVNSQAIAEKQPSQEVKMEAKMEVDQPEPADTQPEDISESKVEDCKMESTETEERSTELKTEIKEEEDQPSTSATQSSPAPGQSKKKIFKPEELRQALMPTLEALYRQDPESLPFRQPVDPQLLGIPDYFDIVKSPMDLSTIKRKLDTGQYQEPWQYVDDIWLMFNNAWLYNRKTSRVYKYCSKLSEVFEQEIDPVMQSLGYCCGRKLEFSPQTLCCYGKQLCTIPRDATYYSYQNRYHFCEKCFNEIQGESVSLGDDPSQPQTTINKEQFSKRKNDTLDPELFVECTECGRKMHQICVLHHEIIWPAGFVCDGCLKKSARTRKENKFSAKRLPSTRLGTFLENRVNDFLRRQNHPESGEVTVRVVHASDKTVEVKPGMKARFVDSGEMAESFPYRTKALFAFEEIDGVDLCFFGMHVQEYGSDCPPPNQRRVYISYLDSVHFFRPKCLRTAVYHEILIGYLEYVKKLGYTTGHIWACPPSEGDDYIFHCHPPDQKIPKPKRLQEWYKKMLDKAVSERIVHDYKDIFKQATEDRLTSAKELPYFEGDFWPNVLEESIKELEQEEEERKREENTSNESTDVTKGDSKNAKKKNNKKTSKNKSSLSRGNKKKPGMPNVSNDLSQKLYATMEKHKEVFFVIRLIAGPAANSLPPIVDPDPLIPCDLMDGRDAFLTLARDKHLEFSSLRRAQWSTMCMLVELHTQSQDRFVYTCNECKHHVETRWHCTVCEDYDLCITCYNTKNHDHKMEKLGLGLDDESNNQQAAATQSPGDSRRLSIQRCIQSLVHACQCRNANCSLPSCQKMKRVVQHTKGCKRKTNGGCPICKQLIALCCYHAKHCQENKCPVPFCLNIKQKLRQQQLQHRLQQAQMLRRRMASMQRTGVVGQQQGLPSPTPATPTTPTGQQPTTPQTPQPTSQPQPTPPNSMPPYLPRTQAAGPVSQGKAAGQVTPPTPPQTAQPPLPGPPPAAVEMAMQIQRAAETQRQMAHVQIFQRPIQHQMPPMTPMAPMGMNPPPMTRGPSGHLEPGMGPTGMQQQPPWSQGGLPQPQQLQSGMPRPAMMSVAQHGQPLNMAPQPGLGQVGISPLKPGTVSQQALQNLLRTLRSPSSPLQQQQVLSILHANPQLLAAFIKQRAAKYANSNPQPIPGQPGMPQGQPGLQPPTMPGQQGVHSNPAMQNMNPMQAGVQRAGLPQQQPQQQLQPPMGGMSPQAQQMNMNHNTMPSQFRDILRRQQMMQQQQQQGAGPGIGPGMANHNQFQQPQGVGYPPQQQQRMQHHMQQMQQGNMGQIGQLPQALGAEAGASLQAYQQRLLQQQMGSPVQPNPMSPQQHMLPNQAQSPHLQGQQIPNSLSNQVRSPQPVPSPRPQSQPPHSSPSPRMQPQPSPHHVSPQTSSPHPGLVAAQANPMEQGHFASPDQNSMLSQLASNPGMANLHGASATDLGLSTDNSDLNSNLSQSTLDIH
# test: P300 degradation, HiBit technology in A549 P300 HiBit cells (2 h)
# Format: cell-based
# experimental.context: A549, A549 P300 HiBit cells, 2 hrs post treatment
The molecules listed here are annotated with their Dmax.

CCn1c(=O)n(C)c2c(C)cc(N3CCOc4nc(-c5ccc(C(=O)NCC#Cc6ccc7occ(C8CCC(=O)NC8=O)c7c6)nc5)ncc43)cc21 (stereo not drawn) :: 60 to 79%
Cc1cc(-c2ccc(N(C)c3cc(C(C)C)c4c(c3)n(C)c(=O)n4C)cn2)cnc1C(=O)NCC#Cc1ccc2occ(C3CCC(=O)NC3=O)c2c1 (stereo not drawn) :: > 80%
CC(C)c1cc(N2CCCc3cc(-c4ccc(C(=O)NCC#Cc5ccc6occ(C7CCC(=O)NC7=O)c6c5)nc4)ncc32)cc2c1n(C)c(=O)n2C (stereo not drawn) :: > 80%
CC(C)c1cc(-c2cccc3cc(-c4ccc(C(=O)NCC#Cc5cc6c(C7CCC(=O)NC7=O)coc6cc5F)nc4)ncc23)cc2c1n(C)c(=O)n2C (stereo not drawn) :: > 80%

Exam item: Name the reported Dmax value associated with the molecule CCN(c1cnc(-c2cnc(C(=O)NCC#Cc3ccc4occ(C5CCC(=O)NC5=O)c4c3)c(C)c2)nc1)c1cc(C2CCOCC2)c2c(c1)n(C)c(=O)n2C (stereo not drawn)
Marked response: > 80%

Exam item: Cool, now Cc1cc2c(N3CCN(C)c4nc(-c5ccc(C(=O)NCC#Cc6ccc7occ(C8CCC(=O)NC8=O)c7c6)nc5)ncc43)cc(C3CCOCC3)cc2n(C)c1=O (stereo not drawn)
Marked response: > 80%

* * *

# subject.of.test: CBP (Homo sapiens)
# Construct: host or cells: A549 CBP HiBit cells
# Sequence (Q92793 whole entry): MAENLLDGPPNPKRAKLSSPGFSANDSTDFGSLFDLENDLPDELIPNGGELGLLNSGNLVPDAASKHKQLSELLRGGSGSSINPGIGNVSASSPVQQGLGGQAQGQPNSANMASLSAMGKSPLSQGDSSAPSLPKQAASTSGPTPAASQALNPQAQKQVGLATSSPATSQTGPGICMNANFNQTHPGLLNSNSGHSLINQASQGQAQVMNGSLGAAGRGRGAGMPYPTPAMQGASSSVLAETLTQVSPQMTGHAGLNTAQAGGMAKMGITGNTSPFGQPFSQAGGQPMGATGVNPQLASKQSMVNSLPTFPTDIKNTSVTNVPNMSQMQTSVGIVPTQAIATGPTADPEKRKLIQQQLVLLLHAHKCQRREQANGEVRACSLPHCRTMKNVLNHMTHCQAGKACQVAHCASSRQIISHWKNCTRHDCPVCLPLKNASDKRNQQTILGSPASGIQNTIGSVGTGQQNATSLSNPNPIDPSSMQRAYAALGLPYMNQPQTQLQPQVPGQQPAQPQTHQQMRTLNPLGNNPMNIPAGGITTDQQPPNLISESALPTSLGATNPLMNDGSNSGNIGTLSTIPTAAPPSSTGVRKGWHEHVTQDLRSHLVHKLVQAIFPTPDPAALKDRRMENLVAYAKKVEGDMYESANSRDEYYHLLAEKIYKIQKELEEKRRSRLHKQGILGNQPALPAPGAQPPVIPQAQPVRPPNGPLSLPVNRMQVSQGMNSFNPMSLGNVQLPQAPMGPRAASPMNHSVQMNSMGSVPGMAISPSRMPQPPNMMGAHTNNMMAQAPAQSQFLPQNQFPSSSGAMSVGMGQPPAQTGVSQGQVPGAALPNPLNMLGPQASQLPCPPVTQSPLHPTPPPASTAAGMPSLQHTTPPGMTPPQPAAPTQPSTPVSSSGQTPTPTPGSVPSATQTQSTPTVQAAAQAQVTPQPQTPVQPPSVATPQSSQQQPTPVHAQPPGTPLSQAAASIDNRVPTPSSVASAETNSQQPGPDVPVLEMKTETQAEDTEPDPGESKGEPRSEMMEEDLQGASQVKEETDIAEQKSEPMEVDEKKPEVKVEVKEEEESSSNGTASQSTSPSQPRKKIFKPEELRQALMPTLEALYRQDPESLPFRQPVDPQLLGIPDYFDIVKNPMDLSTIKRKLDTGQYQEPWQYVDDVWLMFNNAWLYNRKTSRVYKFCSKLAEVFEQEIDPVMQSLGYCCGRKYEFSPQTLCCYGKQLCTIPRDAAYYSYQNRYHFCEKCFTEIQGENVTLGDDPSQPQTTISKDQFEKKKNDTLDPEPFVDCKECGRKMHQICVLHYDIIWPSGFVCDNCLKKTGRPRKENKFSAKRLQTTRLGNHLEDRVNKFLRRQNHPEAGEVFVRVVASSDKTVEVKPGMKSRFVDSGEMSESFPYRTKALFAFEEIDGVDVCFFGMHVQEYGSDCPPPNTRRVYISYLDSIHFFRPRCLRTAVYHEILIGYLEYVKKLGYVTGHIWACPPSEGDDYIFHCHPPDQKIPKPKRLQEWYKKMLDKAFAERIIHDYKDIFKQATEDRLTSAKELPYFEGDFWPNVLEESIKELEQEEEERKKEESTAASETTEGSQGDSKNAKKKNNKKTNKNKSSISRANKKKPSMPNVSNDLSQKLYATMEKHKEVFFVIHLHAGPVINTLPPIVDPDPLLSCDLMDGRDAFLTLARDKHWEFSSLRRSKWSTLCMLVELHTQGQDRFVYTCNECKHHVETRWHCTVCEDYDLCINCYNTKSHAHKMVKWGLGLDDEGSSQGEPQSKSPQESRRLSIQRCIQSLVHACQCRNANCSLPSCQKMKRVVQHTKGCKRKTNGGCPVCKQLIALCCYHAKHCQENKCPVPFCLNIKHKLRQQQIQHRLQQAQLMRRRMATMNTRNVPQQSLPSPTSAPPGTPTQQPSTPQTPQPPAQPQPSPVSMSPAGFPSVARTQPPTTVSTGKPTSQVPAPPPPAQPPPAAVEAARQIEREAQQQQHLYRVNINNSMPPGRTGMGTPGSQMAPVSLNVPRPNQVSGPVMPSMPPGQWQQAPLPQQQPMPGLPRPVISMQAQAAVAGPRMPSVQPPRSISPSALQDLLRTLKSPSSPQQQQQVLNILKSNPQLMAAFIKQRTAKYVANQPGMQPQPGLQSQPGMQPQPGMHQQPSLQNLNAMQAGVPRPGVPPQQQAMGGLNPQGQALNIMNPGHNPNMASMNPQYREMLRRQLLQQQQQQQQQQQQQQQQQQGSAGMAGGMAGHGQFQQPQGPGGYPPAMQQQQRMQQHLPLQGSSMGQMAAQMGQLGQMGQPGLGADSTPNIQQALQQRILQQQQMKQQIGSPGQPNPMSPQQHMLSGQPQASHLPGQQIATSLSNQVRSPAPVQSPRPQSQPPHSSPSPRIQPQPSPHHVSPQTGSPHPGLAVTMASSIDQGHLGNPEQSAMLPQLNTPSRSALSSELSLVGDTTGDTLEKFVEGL
# test: CBP degradation, HiBit technology in A549 CBP HiBit cells (24 h)
# Assay type: cell-based
# experimental.context: 24 hrs post treatment
The molecules listed here are annotated with their Dmax.

Worked examples, 5 molecules total:
Cn1c(=O)n(C)c2c(N3CCC(C)(O)CC3)nc(-c3cccc4cc(-c5ccc(C(=O)NCC#Cc6cc7c(C8CCC(=O)NC8=O)cccc7o6)nc5)ncc34)cc21 (stereo not drawn) :: < 20%
Cc1cc(-c2cc3cccc(-c4cc(C(C)C)c5c(c4)n(C)c(=O)n5C)c3cn2)cnc1C(=O)NCC#Cc1ccc2c(c1)c(C1CCC(=O)NC1=O)nn2C (stereo not drawn) :: > 80%
Cc1cc2c(N3CCCc4nc(-c5ccc(C(=O)NCC#Cc6cc7c(C8CCC(=O)NC8=O)cccc7o6)nc5)ncc43)cc(C3CCC3)cc2n(C)c1=O (stereo not drawn) :: < 20%
Cn1c(=O)n(C)c2c(N3CCOCC3)cc(N3CCCc4nc(-c5ccc(C(=O)NCC#Cc6ccc7occ(C8CCC(=O)NC8=O)c7c6)nc5)ncc43)cc21 (stereo not drawn) :: < 20%
Cc1cc2c(N3CCCc4nc(-c5ccc(C(=O)NCC#Cc6cc7c(C8CCC(=O)NC8=O)c(F)ccc7o6)nc5)ncc43)cc(C3CCOCC3)cc2n(C)c1=O (stereo not drawn) :: < 20%

Exam item: Name the reported Dmax value associated with the molecule Cc1cc2c(N3CCN(C)c4nc(-c5ccc(C(=O)NCC#Cc6cc7c(C8CCC(=O)NC8=O)nccc7o6)nc5)ncc43)cccc2n(C)c1=O (stereo not drawn)
Marked response: 60 to 79%

* * *

# subject.of.test: p300 (Homo sapiens)
# Construct: host or cells: A549 P300 HiBit cells
# test: P300 degradation, HiBit technology in A549 P300 HiBit cells (2 h)
# Format: cell-based
# experimental.context: A549, A549 P300 HiBit cells, 2 hrs post treatment
# Description: p300 and CBP degradation potency and Dmax were determined using in cell western (ICW) assay technology in H1299 cells or HiBit technology in A549 HiBit cells. A549 P300 HiBit and A549 CBP HiBit cells were plated in separate 384-well, TC treated, white-opaque, flat-bottomed microplate. […] After incubation, luminescent signal of each plate was measured using the Envision instrument (Perkin Elmer).
The compounds listed here are annotated with their Dmax.

Worked examples, 5 compounds total:
Cc1cc(-c2ncc(N(C)c3cc(C4CCOCC4)cc4c3cc(C)c(=O)n4C)nn2)cnc1C(=O)NCC#Cc1ccc2occ(C3CCC(=O)NC3=O)c2c1 (stereo not drawn) :: < 20%
Cc1cc(-c2ncc3c(n2)OCCN3c2ccc3c(c2)n(C)c(=O)n3C)cnc1C(=O)NCC#Cc1cc2c(C3CCC(=O)NC3=O)cccc2o1 (stereo not drawn) :: > 80%
CC(C)c1cc(-c2cccc3cc(-c4ccc(C(=O)NCC#Cc5cccc(NC67CC(C6)C(=O)NC7=O)c5)nc4)ncc23)cc2c1n(C)c(=O)n2C :: > 80%
CCN(c1cnc(-c2cnc(C(=O)NCC#Cc3ccc4occ(C5CCC(=O)NC5=O)c4c3)c(C)c2)c(F)c1)c1cc(C(C)C)c2c(c1)n(C)c(=O)n2C (stereo not drawn) :: > 80%
CCc1cc2c(N3CCCc4nc(-c5ccc(C(=O)NCC#Cc6ccc7occ(C8CCC(=O)NC8=O)c7c6)nc5)ncc43)cc(C3CCOCC3)cc2n(C)c1=O (stereo not drawn) :: < 20%

# next compound below
Exam item: Name the reported Dmax value associated with the compound Cn1c(=O)n(C)c2cc(-c3cccc4cc(-c5ccc(C(=O)NCC#Cc6cc7c(C8CCC(=O)NC8=O)cccc7o6)nc5)ncc34)ncc21 (stereo not drawn)
Marked response: 60 to 79%

* * *

# subject.of.test: CBP (Homo sapiens)
# Construct: host or cells: A549 CBP HiBit cells
# test: CBP degradation, HiBit technology in A549 CBP HiBit cells (24 h)
# Type: cell-based
# experimental.context: 24 hrs post treatment
readout.label: DC50

Cc1cc(-c2ncc3c(n2)CCCN3c2cc(C3CCOCC3)nc3c2cc(C)c(=O)n3C)cnc1C(=O)NCC#Cc1cc2c(C3CCC(=O)NC3=O)cccc2o1 (stereo not drawn) [Example B103] :: 100 to 999 nM
Cc1cc2c(N3CCCc4nc(-c5ccc(C(=O)NCC#Cc6ccc7occ(C8CCC(=O)NC8=O)c7c6)nc5)ncc43)cc(Cl)cc2n(C)c1=O (stereo not drawn) [Example B119] :: > 1000 nM
Cc1cc(-c2ncc(N(C)c3cc(C4CCOCC4)c4c(c3)n(C)c(=O)n4C)cn2)cnc1C(=O)NCC#Cc1ccc2occ(C3CCC(=O)NC3=O)c2c1 (stereo not drawn) [Example A53] :: > 1000 nM
CC(C)c1cc(-c2cccc3cc(-c4ccc(C(=O)NCC#Cc5cc(F)c6occ(C7CCC(=O)NC7=O)c6c5)nc4)ncc23)cc2c1n(C)c(=O)n2C (stereo not drawn) [Example A254] :: > 1000 nM
CC(C)c1cc(-c2cccc3cc(-c4ccc(C(=O)NC/C=C/c5cc(NC6CCC(=O)NC6=O)nn5C)nc4)ncc23)cc2c1n(C)c(=O)n2C (stereo not drawn) [Example A16] :: > 1000 nM

# next compound below
Exam item: Name the reported DC50 value associated with the compound COc1nc(-c2cnc(C(=O)NCC#Cc3cc4c(C5CCC(=O)NC5=O)cccc4o3)c(C)c2)ncc1Nc1cc(C2CCOCC2)c2c(c1)n(C)c(=O)n2C (stereo not drawn) [Example A207]
Marked response: 100 to 999 nM

* * *

The compounds listed here are annotated with their DC50.
# subject.of.test: p300 (Homo sapiens)
# Construct: host or cells: A549 P300 HiBit cells
# test: P300 degradation, HiBit technology in A549 P300 HiBit cells (2 h)
# Assay type: cell-based
# experimental.context: A549 P300 HiBit cells, 2 hrs post treatment
# Method: p300 and CBP degradation potency and Dmax were determined using in cell western (ICW) assay technology in H1299 cells or HiBit technology in A549 HiBit cells. A549 P300 HiBit and A549 CBP HiBit cells were plated in separate 384-well, TC treated, white-opaque, flat-bottomed microplate. […] After incubation, luminescent signal of each plate was measured using the Envision instrument (Perkin Elmer).

Exam item: Name the reported DC50 value associated with the compound COc1nc(-c2cnc(C(=O)NCC#Cc3cc4c(C5CCC(=O)NC5=O)cccc4o3)c(C)c2)ncc1Nc1cc(C2CCOCC2)cc2c1cc(C)c(=O)n2C (stereo not drawn) [Example B20]
Marked response: 1 to 9.9 nM

Exam item: Cool, now Cc1cc2c(-c3cccc4cc(-c5ccc(C(=O)NCC#Cc6ccc7occ(C8CCC(=O)NC8=O)c7c6)nc5)ncc34)nc(N3CCOCC3)cc2n(C)c1=O (stereo not drawn) [Example B92]
Marked response: 1 to 9.9 nM

Exam item: Cool, now CC(C)c1cc(-c2ncc(N(C)c3cc(C(C)C)c4c(c3)n(C)c(=O)n4C)cn2)cnc1C(=O)NCC#Cc1ccc2occ(C3CCC(=O)NC3=O)c2c1 (stereo not drawn) [Example A71]
Marked response: 1 to 9.9 nM

Exam item: Cool, now Cc1cc2c(N3CCCc4nc(-c5ccc(C(=O)NCC#Cc6cc7c([C@@H]8CCC(=O)NC8=O)cccc7o6)nc5)ncc43)cc(C3CCOCC3)nc2n(C)c1=O [Example B49]
Marked response: 1 to 9.9 nM

Exam item: Cool, now Cc1cc(-c2ncc(N(C)c3cc(C4CCOCC4)c4c(c3)n(C)c(=O)n4C)cn2)cnc1C(=O)NCC#Cc1ccc2occ(C34CC(C3)C(=O)NC4=O)c2c1 [Example A201]
Marked response: 1 to 9.9 nM

Exam item: Cool, now CC(C)c1cc(-c2cccc3cc(-c4ccc(C(=O)NCC#Cc5ccc6c(c5)N(C5CCC(=O)NC5=O)CC6)nc4)ncc23)cc2c1n(C)c(=O)n2C (stereo not drawn) [Example A184]
Marked response: 10 to 99 nM
